- subject.of.test: CCR-3 (Homo sapiens)
- Sequence (P51677 whole entry): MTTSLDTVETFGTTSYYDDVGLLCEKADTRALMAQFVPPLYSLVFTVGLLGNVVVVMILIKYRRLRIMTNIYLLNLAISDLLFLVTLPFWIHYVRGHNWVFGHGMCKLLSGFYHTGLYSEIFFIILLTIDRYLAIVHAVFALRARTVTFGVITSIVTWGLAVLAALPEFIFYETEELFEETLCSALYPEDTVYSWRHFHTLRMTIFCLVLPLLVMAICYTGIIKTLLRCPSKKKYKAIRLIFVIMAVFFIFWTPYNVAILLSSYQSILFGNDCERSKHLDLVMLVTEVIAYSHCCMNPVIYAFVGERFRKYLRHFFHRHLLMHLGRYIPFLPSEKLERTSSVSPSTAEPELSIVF
- method.description: Inhibition of eotaxin-induced chemotaxis of CCR-3 transfectant cells (CCR3/U937)
- Format: cell-based
- Parameters: expressed in transfected cells; host or cells: U937
- condition.parameters: compound 10 μM, eotaxin 1×10^−9 M, Table 3a
- Procedure: The inhibitory activity of the compounds against eotaxin-induced chemotaxis was determined by measuring the inhibition of migration of CCR-3 transfectant cells (CCR3/U937), using a minor modification of the method described by Ohashi, H. et al., Int Arch Allergy Immunol. (1999) 118, 44-50. […] After incubation, migrated cells in lower wells were diluted and counted by particle size distribution analyzer (CDP-500, Sysmex Co., Ltd.)
List of Chemotaxis Assay 10 μM (inhibition %) values.
Report the figure in % without appending any unit label.

molecule=COC(=O)CCCN(CCCNC(=O)Nc1ccc(Br)cc1)Cc1cccs1 measured=78

For record O=C(O)CCCN(CCCNC(=S)Nc1ccc(Br)cc1)C1CCCc2ccccc21 (stereo not drawn) the listed Chemotaxis Assay 10 μM (inhibition %) is 100

Summary for this molecule, CN(CCCNC(=O)Nc1ccccc1)CCc1ccc(Cl)cc1 : Chemotaxis Assay 10 μM (inhibition %) is 97
